target: GABARAPL2, P60520; assay: median log2 fold change of GCK-ALFA target abundance (FLAG IP / Myc IP barcode read proportion) (log2 ratio); each designed protein is fused to an ALFA-tag nanobody in HEK293 cells to bring the named protein to FLAG-tagged glucokinase (GCK); Myc marks an untargeted standard; higher = target protein stabilised (more abundant); conditions: target protein: 3xFLAG-MCP-GCK-ALFA reporter; HEK293 landing pad (RPLP)
Sequence (P60520 whole entry, the tested form may be a part): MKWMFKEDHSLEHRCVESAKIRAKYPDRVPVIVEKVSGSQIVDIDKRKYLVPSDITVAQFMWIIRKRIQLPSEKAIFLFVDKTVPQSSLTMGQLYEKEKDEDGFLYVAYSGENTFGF
MEASURED_ATTRIBUTE: median log2 fold change
The reply should be a number, written without any unit.

• GBRAPL2_0_7240 (protein) MEALKAELLALSLEEAIARIEALTDEAVALIRADPEAGLAAAEELVEVLAEVVVERKDERLEEAVEAATDRLAAVVAEVDPREAAYLRAIMGSAIAEVES = 0.0165

Could you share which median log2 fold change value was measured for GBRAPL2_0_7249 (protein) MEEELKELLSLSTEEAKKKIKEKAKEVIELIKKDPEEGLKAAEELAEIFAEYLEKTKNEELEEVIDEAIDEIVKEVAKVDPNEAAYIDAIIGSAIMEVEG ?
-0.0458

Could you share which median log2 fold change value was measured for GBRAPL2_106_7268 (protein) KKLEEILEELEEALELVEELLERAEEKDEELLDETLELLDRVTRLAIEAGLDEVAALVADAANDVFAAEEDPENRKEYLERAKEDLEEAIKLVKEKIKEA ?
-0.012

Could you share which median log2 fold change value was measured for GBRAPL2_63_7405 (protein) MTAKKVLEALLRHAILPLDTAERLDEALENEEDEEKLRETLVEAILDIRPELTPEEAEYVAEKLLALAEQSEERLAEAVRALTTLSKEEFLARLDELVAE ?
-0.247

Could you share which median log2 fold change value was measured for GBRAPL2_63_7402 (protein) SAVERVLRTLLEHAVLDLDTAERLEKALESNLSDEELFKTLVEAIKDINPELTEEEAERVARLLIALAEQSEALLVEAVRQLSTLENEEFLALLEALVAA ?
0.0388

Could you share which median log2 fold change value was measured for GBRAPL2_54_7383 (protein) AKKIEIEIDYIVEGDKESLEKVKKVFTELSKKMAEELKEKYGAETKIEFEEENGVLTGTITVITDESHVDEVIDRALELKKEIEKKTGLKVNVVIGIKEL ?
-0.128

Could you share which median log2 fold change value was measured for GBRAPL2_106_7264 (protein) EGLEKARKLAKEALEKAKKLPEAFKKGDEEAIDELLELLDELTRLAIELGLDEVAALVADAFDNVFAASEDPETAEEDLEEAIKDLEEALKLIEKKIKEL ?
-0.195

Could you share which median log2 fold change value was measured for GBRAPL2_128_7293 (protein) MKIVEVDIEIKNEEEAEKVKAAFDEIAERGSPAVAKLADAAKDMAESLLEDGFDEKGTVVDVLSDEDAAELRELYEELAKEYGEEFMNENIKLTIDDIPP ?
-0.421
